AC50 values for the molecules below.
- subject of test: Prostaglandin G/H synthase 1 (Rattus norvegicus, UniProt Q63921)
- Sequence (Q63921 whole entry): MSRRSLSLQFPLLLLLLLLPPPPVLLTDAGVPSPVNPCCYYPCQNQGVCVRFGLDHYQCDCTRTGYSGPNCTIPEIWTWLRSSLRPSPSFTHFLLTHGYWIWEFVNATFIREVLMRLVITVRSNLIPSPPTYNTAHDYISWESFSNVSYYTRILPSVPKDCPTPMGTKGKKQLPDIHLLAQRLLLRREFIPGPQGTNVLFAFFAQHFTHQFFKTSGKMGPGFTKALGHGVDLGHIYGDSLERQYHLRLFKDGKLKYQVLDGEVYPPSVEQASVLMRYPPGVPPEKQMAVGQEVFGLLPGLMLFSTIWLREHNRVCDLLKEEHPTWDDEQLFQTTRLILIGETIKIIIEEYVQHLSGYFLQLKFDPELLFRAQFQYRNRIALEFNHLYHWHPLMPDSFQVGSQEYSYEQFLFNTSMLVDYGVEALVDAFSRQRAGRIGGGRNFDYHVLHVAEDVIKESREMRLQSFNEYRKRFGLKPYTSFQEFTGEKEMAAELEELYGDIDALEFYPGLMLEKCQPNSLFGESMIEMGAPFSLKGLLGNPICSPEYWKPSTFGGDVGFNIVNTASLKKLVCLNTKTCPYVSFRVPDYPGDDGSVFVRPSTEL
- Format: functional

molecule: CC(C)(C)NCC(O)c1ccccc1Cl (centres undefined) [TULOBUTEROL]
AC50: > 30 µM

molecule: CO/N=C(\C(=O)N[C@@H]1C(=O)N2C(C(=O)O)=C(CSc3nc(=O)c(=O)[nH]n3C)CS[C@H]12)c1csc(N)n1 [CEFTRIAXONE]
AC50: > 30 µM

molecule: CC(=O)c1ccc(S(=O)(=O)NC(=O)NC2CCCCC2)cc1 [ACETOHEXAMIDE]
AC50: > 10 µM

molecule: Cc1onc(-c2c(F)cccc2Cl)c1C(=O)N[C@@H]1C(=O)N2[C@@H]1SC(C)(C)[C@@H]2C(=O)O [FLOXACILLIN]
AC50: > 30 µM

molecule: CCN1CCCC1CNC(=O)c1cc(S(=O)(=O)CC)ccc1OC (centres undefined) [SULTOPRIDE]
AC50: > 30 µM

molecule: O=C(O)c1cccnc1Nc1cccc(C(F)(F)F)c1 [NIFLUMIC ACID]
AC50: 30 µM

molecule: CCc1nc(N)nc(N)c1-c1ccc(Cl)cc1 [PYRIMETHAMINE]
AC50: > 10 µM

molecule: CCOc1nc2cccc(C(=O)O)c2n1Cc1ccc(-c2ccccc2-c2nnn[nH]2)cc1
AC50: > 30 µM

molecule: Cc1ccnc2c1NC(=O)c1cccnc1N2C1CC1 [NEVIRAPINE]
AC50: > 30 µM

Origin of values: ChEMBL document CHEMBL5291721
